Assign MEAN LAG TIME to each entry below.
EXPERIMENT_NOTES: in vitro
MEASUREMENT_PARAMETERS: female, New Zealand Albino, rabbit, 100 μMole
Description: The procedure used is summarized below. […] Samples (150 μL) were withdrawn from the receiving chamber every 30 minutes over a five hour period, and an equal volume of irrigating solution was immediately added to the receiving chamber to maintain a constant volume. The concentration of fluoroquinolones in the samples was determined using reverse-phase HPLC. […] The mobile phase (acetonitrile:phosphate buffer v/v) and UV detection wavelengths for each of the fluoroquinolones was determined beforehand. […]
One number for each entry, in min.

Example compounds with recorded MEAN LAG TIME:
Memo: CN1CCCC2CN(c3cc4c(cc3F)c(=O)c(C(=O)O)cn4C3CC3)CC21 (stereo not shown) [Compound 2] , reported MEAN LAG TIME: 27

Entry Nc1c(F)c(N2CC3CCCNC3C2)c(F)c2c1c(=O)c(C(=O)O)cn2C1CC1 [Compound 3 (S,S)] — recorded MEAN LAG TIME = 45

For record CN1CCCC2CN(c3c(F)cc4c(=O)c(C(=O)O)cn(C5CC5)c4c3F)CC21 (stereo not shown) [Compound 1] the listed MEAN LAG TIME is 12

More entries:
Record Nc1c(F)c(N2CC3CCCNC3C2)c(F)c2c1c(=O)c(C(=O)O)cn2C1CC1 (racemic) [Compound 3 (racemic)] , field MEAN LAG TIME: 38

---

For each record, write down the corresponding Minimal Inhibitory Concentration (MIC).
System: Corynebacterium amycolatum
EXPERIMENT_NOTES: In vitro antimicrobial activity, agar dilution MIC
Format: cell-based
MEASUREMENT_PARAMETERS: test organism 24, Corynebacterium amycolatum
One number for each entry.

// worked examples, Minimal Inhibitory Concentration (MIC) included
Form field Minimal Inhibitory Concentration (MIC), entry Nc1c(F)c(N2CC3CCCNC3C2)c(F)c2c1c(=O)c(C(=O)O)cn2C1CC1 (racemic) [Compound 3 (racemic)] : 0.06

get_value(item= CN1CCCC2CN(c3c(F)cc4c(=O)c(C(=O)O)cn(C5CC5)c4c3F)CC21 (stereo not shown) , readout=Minimal Inhibitory Concentration (MIC)) returns 0.06

Lab note: next molecule to report on.
Reported Minimal Inhibitory Concentration (MIC) of Nc1c(F)c(N2CC3CCCNC3C2)c(F)c2c1c(=O)c(C(=O)O)cn2C1CC1 [Compound 3 (S,S)] : 0.5

---

EXPERIMENT_NOTES: in vitro
MEASUREMENT_PARAMETERS: female, New Zealand Albino, rabbit
PROPERTY_LABEL: Papp at 5 h, 100 μMole (×10⁻⁶ cm/s)
Answers are plain numbers, in ×10⁻⁶ cm/s.

// sample Nc1c(F)c(N2CC3CCCNC3C2)c(F)c2c1c(=O)c(C(=O)O)cn2C1CC1 (racemic) [Compound 3 (racemic)] , its Papp at 5 h, 100 μMole was 16.6

Record CN1CCCC2CN(c3cc4c(cc3F)c(=O)c(C(=O)O)cn4C3CC3)CC21 (stereo not shown) , field Papp at 5 h, 100 μMole: 20.5

Lab book: Papp at 5 h, 100 μMole of CN1CCCC2CN(c3c(F)cc4c(=O)c(C(=O)O)cn(C5CC5)c4c3F)CC21 (stereo not shown) noted as 31.1

Further cases:
Lab note: Nc1c(F)c(N2CC3CCCNC3C2)c(F)c2c1c(=O)c(C(=O)O)cn2C1CC1 [Compound 3 (S,S)] gave Papp at 5 h, 100 μMole of 13.6

---

Test system: Staphylococcus aureus
EXPERIMENT_NOTES: In vitro antimicrobial activity, agar dilution MIC
Format: cell-based
MEASUREMENT_PARAMETERS: test organism 2, Staphylococcus aureus
PROPERTY_LABEL: Minimal Inhibitory Concentration (MIC)

Memo: Nc1c(F)c(N2CC3CCCNC3C2)c(F)c2c1c(=O)c(C(=O)O)cn2C1CC1 (racemic) [Compound 3 (racemic)] , reported Minimal Inhibitory Concentration (MIC): 0.5

Looking up Nc1c(F)c(N2CC3CCCNC3C2)c(F)c2c1c(=O)c(C(=O)O)cn2C1CC1 [Compound 3 (S,S)] , I found its Minimal Inhibitory Concentration (MIC) recorded as ≦0.25

In plain terms, CN1CCCC2CN(c3c(F)cc4c(=O)c(C(=O)O)cn(C5CC5)c4c3F)CC21 (stereo not shown) has a documented Minimal Inhibitory Concentration (MIC) of ≦0.25

Data point: CN1CCCC2CN(c3cc4c(cc3F)c(=O)c(C(=O)O)cn4C3CC3)CC21 (stereo not shown) ; Minimal Inhibitory Concentration (MIC) = ≦0.25

---

System: Morganella morganii
EXPERIMENT_NOTES: In vitro antimicrobial activity, agar dilution MIC
Assay type: cell-based
MEASUREMENT_PARAMETERS: test organism 35, Morganella morganii
For each entry below, report its Minimal Inhibitory Concentration (MIC) value.
Give bare numbers.

Take a look at these entries with their results.
Minimal Inhibitory Concentration (MIC) recorded for this molecule, Nc1c(F)c(N2CC3CCCNC3C2)c(F)c2c1c(=O)c(C(=O)O)cn2C1CC1 (racemic) [Compound 3 (racemic)] , is 0.5

Briefly, Minimal Inhibitory Concentration (MIC) measured for Nc1c(F)c(N2CC3CCCNC3C2)c(F)c2c1c(=O)c(C(=O)O)cn2C1CC1 [Compound 3 (S,S)] : 0.125

According to the records, this molecule CN1CCCC2CN(c3cc4c(cc3F)c(=O)c(C(=O)O)cn4C3CC3)CC21 (stereo not shown) [Compound 2] displays Minimal Inhibitory Concentration (MIC) of 1

Turning now to a further molecule:
// Minimal Inhibitory Concentration (MIC) value for CN1CCCC2CN(c3c(F)cc4c(=O)c(C(=O)O)cn(C5CC5)c4c3F)CC21 (stereo not shown) [Compound 1] : 0.5

---

For each record, write down the corresponding Minimal Inhibitory Concentration (MIC).
Tested on: Enterococcus faecalis
EXPERIMENT_NOTES: In vitro antimicrobial activity, agar dilution MIC
Type: cell-based
MEASUREMENT_PARAMETERS: test organism 15, Enterococcus faecalis
Give bare numbers.

Study these solved cases before continuing.
Here Nc1c(F)c(N2CC3CCCNC3C2)c(F)c2c1c(=O)c(C(=O)O)cn2C1CC1 (racemic) [Compound 3 (racemic)] was tested on Enterococcus faecalis, and its Minimal Inhibitory Concentration (MIC) came to 0.125

Noted Minimal Inhibitory Concentration (MIC) for Nc1c(F)c(N2CC3CCCNC3C2)c(F)c2c1c(=O)c(C(=O)O)cn2C1CC1 [Compound 3 (S,S)] , tested on Enterococcus faecalis: 0.125

Short answer on Enterococcus faecalis for CN1CCCC2CN(c3cc4c(cc3F)c(=O)c(C(=O)O)cn4C3CC3)CC21 (stereo not shown) , Minimal Inhibitory Concentration (MIC): 1

Please find the next compound below.
Let me check: CN1CCCC2CN(c3c(F)cc4c(=O)c(C(=O)O)cn(C5CC5)c4c3F)CC21 (stereo not shown) , system Enterococcus faecalis, measured Minimal Inhibitory Concentration (MIC) is 0.5

---

Test system: Morganella morganii
EXPERIMENT_NOTES: In vitro antimicrobial activity, agar dilution MIC
Type: cell-based
MEASUREMENT_PARAMETERS: test organism 36, Morganella morganii
PROPERTY_LABEL: Minimal Inhibitory Concentration (MIC)
Numbers only.

Examples from the recorded data:
Value of measured Minimal Inhibitory Concentration (MIC) for the entry Nc1c(F)c(N2CC3CCCNC3C2)c(F)c2c1c(=O)c(C(=O)O)cn2C1CC1 [Compound 3 (S,S)] : 1

Record summary for CN1CCCC2CN(c3cc4c(cc3F)c(=O)c(C(=O)O)cn4C3CC3)CC21 (stereo not shown) [Compound 2] : reported Minimal Inhibitory Concentration (MIC) = 2

Record CN1CCCC2CN(c3c(F)cc4c(=O)c(C(=O)O)cn(C5CC5)c4c3F)CC21 (stereo not shown) [Compound 1] , field Minimal Inhibitory Concentration (MIC): 2

Now examine the next entry.
Note to self: Minimal Inhibitory Concentration (MIC) recorded for Nc1c(F)c(N2CC3CCCNC3C2)c(F)c2c1c(=O)c(C(=O)O)cn2C1CC1 (racemic) [Compound 3 (racemic)] was 1

The measured values listed here are drawn from patent US20120108557A1.
